Test system: SW-620 colon
assay_remarks: NCI-60 one-dose screen, 48 h (100 = growth as untreated, 0 = no growth, -100 = all killed)
details: 10 µM
This is part of a sample that, as a whole, favours compounds with a hit. Of some 83,000 tested, about 20% had one in any assay.
Reported growth values are given for each entry in this list.
The reply should contain only the number, in %.

Use these answered entries as a reference point.
# compound, test_target, growth (%)
records = [
    ("CN1CCC2(CC1)NC(=O)c1c(c3ccc(Cl)c(Cl)c3n1C)C2C#N (stereo unspecified)", "SW-620 colon", 83.9),
    ("COc1ccc2nc3ccccc3c(NCCNCC(C)O)c2c1 (stereo unspecified)", "SW-620 colon", 0.102),
    ("CCCCCCCC(C)NCCO (stereo unspecified)", "SW-620 colon", 106),
    ("CC1(C)CCC(=NNC(N)=S)CC1", "SW-620 colon", 105),
    ("Cc1cccc2c1O/C(=C\\c1ccc([N+](=O)[O-])o1)C2=O", "SW-620 colon", -68),
    ("O=C(O)CN1C(=O)c2cccc3cccc(c23)C1=O", "SW-620 colon", 106),
]

(Q) For the compound shown here, COc1cc(-c2nn3c(/C=C4/C(=O)Nc5ccccc54)c(-c4ccc(C)cc4)nc3s2)cc(OC)c1OC , give the reported growth.
(A) 54.8

(Q) Param item: COc1cc(NC(=O)CCSc2nc3ccc(Cl)cc3c(=O)n2Cc2ccccc2)cc(OC)c1OC
(A) 86.2

(Q) Param item: O=C(Nc1ccc(Cl)c([N+](=O)[O-])c1)Nc1nc2ccccc2s1
(A) 99.4

(Q) Param item: C#Cc1ccc(-n2c(/C=C/c3ccc(O)cc3)nc3ncccc3c2=O)cc1
(A) 34.5

(Q) Param item: O=C(Nc1nc2ccc(F)cc2s1)c1cc(-c2ccc(F)cc2)n2nc(-c3ccccc3)cc2n1
(A) 62.4

###

Test system: MCF7 breast
assay_remarks: NCI-60 one-dose screen, 48 h (100 = growth as untreated, 0 = no growth, -100 = all killed)
details: 10 µM
About 83,000 compounds went through this panel and 20% of them were active in at least one assay; those are over-represented in the sample as a whole.
Reported growth values are given for each entry in this list.
The reply should contain only the number, in %.

Use these answered entries as a reference point.
# compound, u, growth
data = [
    ("CN(C)CCCn1c(=O)c2ccccc2c2cnc3[nH]ccc3c21", "%", 1.25),
    ("COc1ccc(-c2nc3ncccn3c2-c2nnc(-c3ccc(F)cc3)o2)cc1", "%", 92.7),
]

(Q) For the compound shown here, COc1ccc(-c2nc3ncccn3c2-c2nnc(-c3ccsc3C)o2)cc1 , give the reported growth.
(A) 77.1

(Q) Param item: Cc1[nH]nc2c1C(c1cnn(C)c1)C(C#N)=C(N)O2 (stereo unspecified)
(A) 98

(Q) Param item: CN(C)c1ccc(-c2cc(-c3cccc(NS(C)(=O)=O)c3)nc(N)c2C#N)cc1
(A) 16.1

(Q) Param item: c1ccc2c(-c3nc(N4CCOCC4)c4c5c(sc4n3)CCCCCC5)cccc2c1
(A) 91.8

(Q) Param item: CCOC(=O)c1ccoc1
(A) 95.1

(Q) Param item: COC(=O)C1=NNC(=S)N(c2cc(C)[nH]n2)C(=O)C1
(A) 96

(Q) Param item: N#Cc1cc(-c2cc3ccccc3o2)oc1N
(A) 22.9

(Q) Param item: CC(C)(C)c1ccc(N2CSC(=S)N(c3ccc(C(C)(C)C)cc3)C2)cc1
(A) 91.7

(Q) Param item: Nc1cc2c(cc1Cl)-c1ccc([N+](=O)[O-])cc1/C2=N\O
(A) 79.2

This collection of values is drawn from PubChem BioAssay (NCI).
